B1: HEEH_KT_rd6_3546 (parent)
chain: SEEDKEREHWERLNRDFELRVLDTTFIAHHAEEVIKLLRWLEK

Variants of: B1
test_description: folding stability dG (cDNA display proteolysis); higher = more stable
experimental_setup: PBS, room temperature
endpoint: folding stability dG (kcal/mol)
One number for each entry, in kcal/mol.

Example variants with recorded folding stability dG:
[[record]]
query_sequence = "SEEDKEREHWERLNRDFELRVLDPTFIAHHAEEVIKLLRWLEK [T24P]"
assay_result = 1.22

[[record]]
query_sequence = "SEEDKEREHWERLNRDFELRVIDTTFIAHHAEEVIKLLRWLEK [L22I]"
assay_result = 1.53

[[record]]
query_sequence = "SEEDKEREHWERLNRDFELRVLDTTFIAHTAEEVIKLLRWLEK [H30T]"
assay_result = 1.72

[[record]]
query_sequence = "SEEDKEREHWERLNRDFELRVLDFTFIAHHAEEVIKLLRWLEK [T24F]"
assay_result = 2.01

[[record]]
query_sequence = "SEEDKEREHWERLNRDFELRVLDTTFIAMHAEEVIKLLRWLEK [H29M]"
assay_result = 1.98


List the reported folding stability dG of each variant below.
1. SEEDKEREHWERLNRDFELRVLDTTFIANHAEEVIKLLRWLEK [H29N]
2. SEEDKEREHWERLNRDFELDVLDTTFIAHHAEEVIKLLRWLEK [R20D]
3. SEEDKEREHWERLNRDFELRVLQTTFIAHHAEEVIKLLRWLEK [D23Q]
4. SEEDKEREHWERINRDFELRVLDTTFIAHHAEEVIKLLRWLEK [L13I]

Reply |
1. 1.3
2. 1.18
3. 1.64
4. 1.53

I need folding stability dG for every entry listed below, if you could help.
1. QEEDKEREHWERLNRDFELRVLDTTFIAHHAEEVIKLLRWLEK [S1Q]
2. SEEDKEREHWERLNRDFELRVLDTTFIAHVAEEVIKLLRWLEK [H30V]
3. SEEMKEREHWERLNRDFELRVLDTTFIAHHAEEVIKLLRWLEK [D4M]

Reply |
[1.5, 2.38, 1.42]

The following variants each have a reported value; give each one's folding stability dG.
1. SEEDKEREHWERLNRDFELRVLDTTFIAHHAEEVIKALRWLEK [L37A]
2. SEEDKEREHWERLNRDFELRVLDTTFIWHHAEEVIKLLRWLEK [A28W]
3. SEEDKEREHWERLNRDFELRVLDTTMIAHHAEEVIKLLRWLEK [F26M]
4. SEEDKEGEHWERLNRDFELRVLDTTFIAHHAEEVIKLLRWLEK [R7G]
5. SEEDKEREHWERLNRDFELRVLDTTFIAHHAEEVIKLLRWLQK [E42Q]
6. SEEDKEPEHWERLNRDFELRVLDTTFIAHHAEEVIKLLRWLEK [R7P]
7. SIEDKEREHWERLNRDFELRVLDTTFIAHHAEEVIKLLRWLEK [E2I]
8. SEEDKEREHWERLNRDFELRVLDTWFIAHHAEEVIKLLRWLEK [T25W]

Reply |
1. 0.846
2. 2.14
3. 0.674
4. 1.47
5. 1.67
6. 1.19
7. 1.6
8. 2.16

// each variant listed below needs its folding stability dG
1. SEEDKEREHWERLNRDFELRVLDTTFIAHHAEEVIKDLRWLEK [L37D]
2. SEEDKEREHWERLNRDFELRVLDTTYIAHHAEEVIKLLRWLEK [F26Y]

Reply |
1. -0.437
2. 1.04
